# measured-target: human melanocortin 1 receptor (human, UniProt Q01726 1-317)
# Sequence (Q01726 whole entry): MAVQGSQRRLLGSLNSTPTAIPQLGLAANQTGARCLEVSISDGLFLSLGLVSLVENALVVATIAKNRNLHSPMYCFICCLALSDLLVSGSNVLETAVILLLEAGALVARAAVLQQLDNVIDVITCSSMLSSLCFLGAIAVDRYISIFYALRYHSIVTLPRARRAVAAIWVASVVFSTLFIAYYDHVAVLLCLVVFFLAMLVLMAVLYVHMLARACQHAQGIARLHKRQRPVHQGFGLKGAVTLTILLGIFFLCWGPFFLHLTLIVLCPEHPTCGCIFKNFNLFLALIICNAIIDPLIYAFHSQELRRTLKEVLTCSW
# assay-info: cell-based or functional assay
Positions of bridges follow the written chain, without caps; N, C: chain ends. Non-standard residues stand in square brackets, D forms with d. Hyp = O=C(O)[C@@H]1C[C@@H](O)CN1; Cit = NC(=O)NCCC[C@H](N)C(=O)O; Thz = O=C(O)[C@@H]1CSCN1; Aib = CC(C)(N)C(=O)O

binder	limit-operator	MC1R cAMP EC50 / nM
cyclo(CAH[dF][Cit]WCAKKKW) (disulfide 1-7; SMILES C[C@@H]1NC(=O)[C@@H]2CSSC[C@H](NC(=O)[C@H](Cc3c[nH]c4ccccc34)NC(=O)[C@H](CCCNC(N)=O)NC(=O)[C@@H](Cc3ccccc3)NC(=O)[C@H](Cc3c[nH]cn3)NC1=O)C(=O)N[C@@H](C)C(=O)N[C@@H](CCCCN)C(=O)N[C@@H](CCCCN)C(=O)N[C@@H](CCCCN)C(=O)N[C@@H](Cc1c[nH]c3ccccc13)C(=O)N2, also called c[c[Cys-Ala-His-D-Phe-Cit-Trp-Cys]-Ala-Lys-Lys-Lys-Trp]) [Chem. 48]	=	9.14
XAHFRWXAHFRW (HCys 1, 7; D-Phe 4, 10; disulphide HCys1-HCys7; head-to-tail amide HCys1-Trp12, also called c[c[HCys-Ala-His-D-Phe-Arg-Trp-HCys]-Ala-His-D-Phe-Arg-Trp]) [Chem. 3]	=	7.29
cyclo(C[Hyp][dF]RWC[Hyp][dF]RW) (disulfide 1-6; SMILES N=C(N)NCCC[C@@H]1NC(=O)[C@@H](Cc2ccccc2)NC(=O)[C@@H]2C[C@@H](O)CN2C(=O)[C@@H]2CSSC[C@H](NC(=O)[C@H](Cc3c[nH]c4ccccc34)NC1=O)C(=O)N1C[C@H](O)C[C@H]1C(=O)N[C@H](Cc1ccccc1)C(=O)N[C@@H](CCCNC(=N)N)C(=O)N[C@@H](Cc1c[nH]c3ccccc13)C(=O)N2, also called c[c[Cys-Hyp-D-Phe-Arg-Trp-Cys]-Hyp-D-Phe-Arg-Trp]) [Chem. 27]	=	50.9
cyclo(C[Aib][Hyp][dF]RWC[Aib][Hyp][dF]RW) (disulfide 1-7; SMILES CC1(C)NC(=O)[C@@H]2CSSC[C@H](NC(=O)[C@H](Cc3c[nH]c4ccccc34)NC(=O)[C@H](CCCNC(=N)N)NC(=O)[C@@H](Cc3ccccc3)NC(=O)[C@@H]3C[C@@H](O)CN3C1=O)C(=O)NC(C)(C)C(=O)N1C[C@H](O)C[C@H]1C(=O)N[C@H](Cc1ccccc1)C(=O)N[C@@H](CCCNC(=N)N)C(=O)N[C@@H](Cc1c[nH]c3ccccc13)C(=O)N2) [Chem. 38]	>	3.7
cyclo(CA[Hyp][dF]RWCA[Hyp][dF]RW) (disulfide 1-7; SMILES C[C@@H]1NC(=O)[C@@H]2CSSC[C@H](NC(=O)[C@H](Cc3c[nH]c4ccccc34)NC(=O)[C@H](CCCNC(=N)N)NC(=O)[C@@H](Cc3ccccc3)NC(=O)[C@@H]3C[C@@H](O)CN3C1=O)C(=O)N[C@@H](C)C(=O)N1C[C@H](O)C[C@H]1C(=O)N[C@H](Cc1ccccc1)C(=O)N[C@@H](CCCNC(=N)N)C(=O)N[C@@H](Cc1c[nH]c3ccccc13)C(=O)N2, also called c[c[Cys-Ala-Hyp-D-Phe-Arg-Trp-Cys]-Ala-Hyp-D-Phe-Arg-Trp]) [Chem. 14]	>	10
cyclo(CKH[dF]HWCKH[dF]HW) (disulfide 1-7; SMILES NCCCC[C@@H]1NC(=O)[C@@H]2CSSC[C@H](NC(=O)[C@H](Cc3c[nH]c4ccccc34)NC(=O)[C@H](Cc3c[nH]cn3)NC(=O)[C@@H](Cc3ccccc3)NC(=O)[C@H](Cc3c[nH]cn3)NC1=O)C(=O)N[C@@H](CCCCN)C(=O)N[C@@H](Cc1c[nH]cn1)C(=O)N[C@H](Cc1ccccc1)C(=O)N[C@@H](Cc1c[nH]cn1)C(=O)N[C@@H](Cc1c[nH]c3ccccc13)C(=O)N2, also called c[c[Cys-Lys-His-D-Phe-His-Trp-Cys]-Lys-His-D-Phe-His-Trp]) [Chem. 52]	=	47.7
cyclo(C[Hyp]H[dF]HWCAKKKR) (disulfide 1-7; SMILES C[C@@H]1NC(=O)[C@@H]2CSSC[C@H](NC(=O)[C@H](CCCNC(=N)N)NC(=O)[C@H](CCCCN)NC(=O)[C@H](CCCCN)NC(=O)[C@H](CCCCN)NC1=O)C(=O)N1C[C@H](O)C[C@H]1C(=O)N[C@@H](Cc1c[nH]cn1)C(=O)N[C@H](Cc1ccccc1)C(=O)N[C@@H](Cc1c[nH]cn1)C(=O)N[C@@H](Cc1c[nH]c3ccccc13)C(=O)N2, also called c[c[Cys-Hyp-His-D-Phe-His-Trp-Cys]-Ala-Lys-Lys-Lys-Arg]) [Chem. 97]	=	23.1
cyclo(C[Thz]H[dF]HWCAKKAW) (disulfide 1-7; SMILES C[C@@H]1NC(=O)[C@H](CCCCN)NC(=O)[C@H](CCCCN)NC(=O)[C@H](C)NC(=O)[C@@H]2CSSC[C@H](NC(=O)[C@H](Cc3c[nH]c4ccccc34)NC1=O)C(=O)N1CSC[C@H]1C(=O)N[C@@H](Cc1c[nH]cn1)C(=O)N[C@H](Cc1ccccc1)C(=O)N[C@@H](Cc1c[nH]cn1)C(=O)N[C@@H](Cc1c[nH]c3ccccc13)C(=O)N2, also called c[c[Cys-THAZ-His-D-Phe-His-Trp-Cys]-Ala-Lys-Lys-Ala-Trp]) [Chem. 110]	=	63.3
cyclo(C[Aib]H[dF]KWC[Aib]H[dF]KW) (disulfide 1-7; SMILES CC1(C)NC(=O)[C@@H]2CSSC[C@H](NC(=O)[C@H](Cc3c[nH]c4ccccc34)NC(=O)[C@H](CCCCN)NC(=O)[C@@H](Cc3ccccc3)NC(=O)[C@H](Cc3c[nH]cn3)NC1=O)C(=O)NC(C)(C)C(=O)N[C@@H](Cc1c[nH]cn1)C(=O)N[C@H](Cc1ccccc1)C(=O)N[C@@H](CCCCN)C(=O)N[C@@H](Cc1c[nH]c3ccccc13)C(=O)N2, also called c[c[Cys-Aib-His-D-Phe-Lys-Trp-Cys]-Aib-His-D-Phe-Lys-Trp]) [Chem. 40]	=	11.1

Recorded values, source patent US20200223889A1.
